- EXPERIMENTAL DETAILS: Volume of distribution at steady state in Sprague-Dawley rat at 2.6 mg/kg, iv
- Format: ADME, organism-based
- Parameters: dose 2.6 mg/kg, route intravenous
- CONDITION LABEL: in vivo, read-out: Vdss
VALUE KIND: Vd

Req: Requested read-out: Vd. Entry: C[C@H](CCOc1cccc(CC(=O)O)c1)N(Cc1cccc(C(F)(F)F)c1Cl)CC(c1ccccc1)c1ccccc1
Resp: 1.9 L/kg

====

// reported EC50 per item
- TESTED TARGET: Oxysterols receptor LXR-beta (Homo sapiens, UniProt P55055)
- Sequence (P55055 whole entry, the tested form may be a part): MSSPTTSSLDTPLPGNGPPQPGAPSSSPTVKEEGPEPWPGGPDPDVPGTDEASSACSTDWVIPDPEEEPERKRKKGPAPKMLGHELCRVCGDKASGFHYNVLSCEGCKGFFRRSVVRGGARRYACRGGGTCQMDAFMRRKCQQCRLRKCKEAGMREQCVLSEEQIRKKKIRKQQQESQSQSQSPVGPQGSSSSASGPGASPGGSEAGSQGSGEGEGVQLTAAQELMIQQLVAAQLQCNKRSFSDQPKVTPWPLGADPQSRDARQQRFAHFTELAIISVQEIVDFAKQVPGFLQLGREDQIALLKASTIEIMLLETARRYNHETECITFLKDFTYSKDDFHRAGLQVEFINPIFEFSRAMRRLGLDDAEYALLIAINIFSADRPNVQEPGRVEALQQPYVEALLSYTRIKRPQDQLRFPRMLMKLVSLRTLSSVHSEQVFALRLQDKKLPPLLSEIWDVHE
- EXPERIMENTAL DETAILS: Agonist activity at human LXRbeta assessed as association of SRC1 to LXRbeta ligand binding domain by FRET based cell-free ligand sensing assay
Respond numerically; units are nM and should not be typed.

For orientation, consider the following solved cases.
{"columns": ["COMPOUND", "EC50 / nM"],
 "data": [
  ["CC(C)(C(=O)O)c1cccc(OCCCN(Cc2cccc(C(F)(F)F)c2Cl)CC(c2ccccc2)c2ccccc2)c1", 15],
  ["O=C(O)C1CCCc2c(OCCCN(Cc3cccc(C(F)(F)F)c3Cl)CC(c3ccccc3)c3ccccc3)cccc21 (racemic)", 26]
]}

Moving on to the next compound.
Req: GET /values?readout=EC50&item= C[C@H](CCOc1cccc(C(C)(C)C(=O)O)c1)N(Cc1cccc(C(F)(F)F)c1Cl)CC(c1ccccc1)c1ccccc1
Resp: 11

# credit: ChEMBL document CHEMBL1155210
